Reference source: PubChem BioAssay AID651703

Below, each of the compounds is paired with its reported AC50 value.
- assay system: Transforming acidic coiled-coil-containing protein 3 (Homo sapiens)
- assay overview: inhibition of ARNT PAS-B/TACC3 complex formation – biochemical, AlphaScreen, cherry-picked samples, confirmation (AID 651703);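 also: TACC3 partner is the GST-tagged E629A mutant dimer; hits lower the signal meaning they disrupt ARNT binding to TACC3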
- cond: AlphaScreen His-ARNT PAS-B / GST-TACC3 binding, luminescence
quantity: AC50

N#Cc1ccc(C(=O)Nc2nnc(-c3ccccn3)o2)cc1; 22.4 µM
Cc1nc2ncccn2c1-c1csc(Nc2ccccc2)n1; 41.6 µM
C[C@@H]1CN([C@@H](C)CO)C(=O)Cc2cc(NC(=O)Nc3cccc4ccccc34)ccc2O[C@H]1CN(C)Cc1ccc(Oc2ccccc2)cc1; 18.4 µM
O=C(Cn1cncn1)N/N=C/c1cc([N+](=O)[O-])ccc1O; 4.04 µM
CCN(CC)c1ccc(Nc2nc(N3CCOCC3)c3ccccc3n2)cc1; 4.99 µM
CCOC(=O)c1c(C)[nH]c(N=Nc2cccc(C)c2)c1C; 17.8 µM
COc1cccc(C(=O)Nc2nnc(-c3cccs3)o2)c1; 21.4 µM
COc1ccc(NC(=O)N[C@@H]2CC[C@H](CCn3cc(-c4ccccn4)nn3)O[C@H]2CO)cc1; 12.7 µM
CSCCC(=O)Nc1nc(-c2ccccn2)cs1; 8.98 µM
O=S(=O)(N[C@H]1CC[C@H](CCn2cc(-c3ccccn3)nn2)O[C@@H]1CO)c1cccc(F)c1; 10.7 µM
Cc1ccccc1CSc1nnc(-c2ccccn2)n1N; 31.7 µM
Oc1cc(NCc2ccc(F)cc2)cc2cccnc12; 8.9 µM
Oc1ccc(/C=N/Nc2ccc(Cl)nn2)c(O)c1O; 0.702 µM
C/C(=N\NC(=O)C(C)Oc1ccc([N+](=O)[O-])cc1)c1ccccn1 (configuration not stated); 4.39 µM
O=C(N[C@H]1CC[C@H](CCn2cc(-c3ccccn3)nn2)O[C@@H]1CO)c1ccccc1; 13 µM
COc1ccc(NC(=O)CSc2ccc3nnc(-c4ccccn4)n3n2)cc1; 26.2 µM
C[C@@H]1CCCCO[C@@H](CN(C)C(=O)Nc2cccc3ccccc23)[C@H](C)CN([C@@H](C)CO)C(=O)c2cc(NS(=O)(=O)c3cn(C)cn3)ccc2O1; 56.4 µM
O=C(Nc1nc(-c2ccccn2)cs1)c1ccc([N+](=O)[O-])o1; 11.1 µM
Cc1cccc(S(=O)(=O)N[C@H]2CC[C@H](CCn3cc(-c4ccccn4)nn3)O[C@H]2CO)c1; 18.5 µM
COC(=O)c1ccc(C(=O)O)nc1; 32.8 µM
COc1cc(C(=O)NCc2nnc(SCC(=O)Nc3nccs3)o2)cc(OC)c1OC; 58.8 µM
Oc1c(C(c2ccccc2Cl)N2CCCC2)ccc2cccnc12 (configuration not stated); 1.85 µM
O=C(Oc1c(CN2CCOCC2)cc(Cl)c2cccnc12)c1ccccc1; 18.3 µM
Cc1ccc2ccc3cccnc3c2n1; 7.33 µM
c1ccc(-c2cn3c(n2)CCc2ccc4cccnc4c2-3)cc1; 21.2 µM
C[C@]12CC[C@H](O)CC1=CCC1C2CC[C@@]2(C)C1CC[C@@H]2NC(=O)[C@@H](N)Cc1cnc[nH]1 (some centres not stated); 28.3 µM
Oc1c(CN2CCCCC2)cc(Br)c2cccnc12; 0.995 µM

###

- assay system: Transforming acidic coiled-coil-containing protein 3 (Homo sapiens)
- assay overview: inhibition of ARNT PAS-B/TACC3 complex formation – biochemical, AlphaScreen, cherry-picked samples, confirmation (AID 651703)
- cond: AlphaScreen His-ARNT PAS-B / GST-TACC3 binding, luminescence
Below, each of the compounds is paired with its reported AC50 value.
quantity: AC50

Cc1ccc(Cn2cccc(NS(C)(=O)=O)c2=O)cc1; 64.7 µM
COc1ccc(C2=Nn3c(nnc3-c3ccccn3)SC2)cc1; 11.2 µM
CC1CCCN(S(=O)(=O)c2ccc(C(=O)Nc3nnc(C4CC4)o3)cc2)C1 (stereo unspecified); 31.9 µM
Cc1ccc(CNc2nc(-c3ccccn3)nnc2-c2ccccc2)cc1C; 0.558 µM
O=S(=O)(N[C@H]1CC[C@H](CCn2cc(-c3ccccn3)nn2)O[C@H]1CO)c1cccc(Cl)c1; 26.6 µM
O=C(NNc1ccccn1)C(=O)NNS(=O)(=O)c1ccc(Cl)cc1; 15.6 µM
COc1ccc2nc(/N=C/c3c(C)[nH]n(-c4ccc(C)cc4)c3=O)sc2c1; 46.3 µM
COCCN=c1scc(-c2ccco2)n1/N=C/c1ccc(O)c(O)c1O; 9.77 µM
c1ccc(-c2ccc(SCc3cccnc3)nn2)nc1; 1.81 µM
Cc1ccn2c(Nc3ccccc3C)c(-c3ccccn3)nc2c1; 3.69 µM
O=C(NCCCn1ccnc1)C(=O)NCC1OCCN1S(=O)(=O)c1ccc2c(c1)OCCO2 (stereo unspecified); 13.2 µM

###

Below, each of the compounds is paired with its reported AC50 value.
- assay system: Transforming acidic coiled-coil-containing protein 3 (Homo sapiens)
- assay overview: inhibition of ARNT PAS-B/TACC3 complex formation – biochemical, AlphaScreen, cherry-picked samples, confirmation (AID 651703);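 also: TACC3 partner is the GST-tagged E629A mutant dimer; hits lower the signal meaning they disrupt ARNT binding to TACC3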
- cond: AlphaScreen His-ARNT PAS-B / GST-TACC3 binding, luminescence
quantity: AC50

CCN(CC)C(=O)c1sc2nc(-c3ccccn3)[nH]c(=O)c2c1C; 10.5 µM
CCOc1ccc(NC(=O)c2c(NC(=O)CNCCN3CCOCC3)sc3c2CCC3)cc1; 14.6 µM
O=C(Nc1nnc(C2=COCCO2)o1)c1ccc(Cl)cc1; 17.7 µM
c1ccc(-c2nnc(-c3ccccn3)nc2NCCCN2CCOCC2)cc1; < 0.5 µM
Clc1ccc(-c2ccc(CNCc3ccccn3)o2)cc1; 20 µM
CC(C)COCc1ccc(O)c2ncccc12; 3.53 µM

###

- assay system: Transforming acidic coiled-coil-containing protein 3 (Homo sapiens) (UniProt Q9Y6A5)
- assay overview: inhibition of ARNT PAS-B/TACC3 complex formation – biochemical, AlphaScreen, cherry-picked samples, confirmation (AID 651703);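 also: TACC3 partner is the GST-tagged E629A mutant dimer; hits lower the signal meaning they disrupt ARNT binding to TACC3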
- cond: AlphaScreen His-ARNT PAS-B / GST-TACC3 binding, luminescence
Below, each of the compounds is paired with its reported AC50 value.
quantity: AC50

CCN(CC)c1ccc(/C=N/N=C(N)N)c(O)c1; 38.9 µM
CC(C)(C)C1=Nn2c(nnc2-c2ccccn2)SC1; 6.44 µM
C[C@H]1CN([C@@H](C)CO)C(=O)Cc2cc(NC(=O)Nc3cccc4ccccc34)ccc2O[C@@H]1CN(C)Cc1ccc(Oc2ccccc2)cc1; 47.3 µM
Cc1ccc(C)c(S(=O)(=O)N2CCCOC2CNC(=O)C(=O)NCCCn2ccnc2)c1 (configuration not stated); 4.16 µM
O=S(=O)(c1ccccc1)N1C[C@H]2[C@@H](c3ccccc31)[C@@H](CO)N2Cc1ccccn1; 52.3 µM
CC(=O)c1cccc(NC(=O)CSc2ccc(-c3ccccn3)nn2)c1; 3.21 µM
COC(=O)c1ccc2[nH]c3c(c2c1)CC(C)CC3 (configuration not stated); 33.2 µM
COc1ccccc1NC(=O)CSc1n[nH]c(-c2ccccn2)n1; 0.821 µM
O=C(CN1C(=O)C2C3C=CC(C3)C2C1=O)Nc1nc(-c2ccccn2)cs1 (configuration not stated); 6.76 µM
CC(NC1=CC(=O)c2cccnc2C1=O)C(O)c1ccccc1 (configuration not stated); 15.5 µM
O=C(Nc1nnc(-c2ccco2)o1)c1ccc(N2C(=O)CCC2=O)cc1; 22.8 µM
C/C(=N\NC(=O)Cc1ccc(Cl)cc1)c1ccccn1; 10.2 µM
O=C(N/N=C/c1cccc2nccnc12)c1ccccc1O; 4.77 µM
CCN(CC)S(=O)(=O)c1cccc(C(=O)N/N=C/c2ccc(O)c(O)c2O)c1; 4.5 µM
COc1ccc(CCNC(=O)CSc2nnc(Cc3csc(N)n3)n2C)cc1OC; 61 µM
CN(CC(=O)O)Cc1nc2ccccc2[nH]1; 7.77 µM
NNc1ccc(S(=O)(=O)N2CCCCC2)cn1; 9.17 µM
Cc1ccc(S(=O)(=O)/N=C2\C=C(Nc3ccc(O)cc3)C(=O)c3ccccc32)cc1; 3.43 µM
Cn1c(-c2ccc3c(c2)OCO3)cnc1N; 39 µM
COc1cc2c(cc1O)C[C@H]1NCCc3cc4c(c-2c31)OCO4; 27.7 µM
Cc1cc(C)c(S(=O)(=O)N2CCOC2CNC(=O)C(=O)NCCCn2ccnc2)c(C)c1 (configuration not stated); 5.58 µM
CCOc1ccc(NC(=O)CC(NCc2ccccn2)C(=O)O)cc1 (configuration not stated); < 0.5 µM

###

- assay system: Transforming acidic coiled-coil-containing protein 3 (Homo sapiens) (UniProt Q9Y6A5)
- assay overview: inhibition of ARNT PAS-B/TACC3 complex formation – biochemical, AlphaScreen, cherry-picked samples, confirmation (AID 651703);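 also: TACC3 partner is the GST-tagged E629A mutant dimer; hits lower the signal meaning they disrupt ARNT binding to TACC3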
- cond: AlphaScreen His-ARNT PAS-B / GST-TACC3 binding, luminescence
Below, each of the compounds is paired with its reported AC50 value.
quantity: AC50

O=C(N[C@H]1CC[C@H](CCn2cc(-c3ccccn3)nn2)O[C@H]1CO)c1ccncc1; 14.4 µM
O=C(CSc1ccc(-c2ccccn2)nn1)N1CCCC1; 3.05 µM
FC(F)(F)c1cnc(C(c2ccccn2)c2ncn[nH]2)c(Cl)c1 (centres undefined); 3.93 µM
CCCCCc1cc(=O)oc2c(C(CCN(CC)CC)c3ccc(N(C)C)cc3)c(OC)cc(OC)c12 (centres undefined); 5.02 µM
COC(=O)c1ccccc1-c1ccc(C(c2c(C)[nH][nH]c2=O)c2c(C)[nH][nH]c2=O)o1; 15.7 µM
O=Nc1ccc(O)c2ncccc12; 13.6 µM
CN(Cc1ccccc1)C(=O)c1[nH]cnc1C(=O)Nc1nccs1; 22.5 µM
COc1ccccc1Nc1nc(N)nc(CN(C)C2CCCCC2)n1; 37.7 µM
c1ccc(-c2cnc(Nc3nc(-c4ccccn4)nnc3-c3ccccc3)s2)cc1; 0.916 µM
CC(=O)Nc1ccc(Oc2nc(-c3ccccn3)nc3ccccc23)cc1; 7.02 µM
Cc1ccc2cc(C3C(C#N)=C(N)Oc4c3ccc3cccnc43)c(=O)[nH]c2c1 (centres undefined); 7.43 µM
CC(C)(C)C(=O)Nc1ccccc1C(=O)NCCCn1ccnc1; 17.4 µM
COc1cc(CNCc2ccccn2)ccc1OCC(=O)NC(C)(C)C; 26.4 µM
CNCc1cn2cc(Cl)ccc2n1; 21 µM
